Test system: Mus musculus
experimentDescription: Antitrypanosomal activity was evaluated against Trypanosoma rhodesiense infections in mice, at dose 212 mg/kg, administered subcutaneously;Toxic
Format: functional
assaySetup: route subcutaneous
reportedProperty: Toxic
I'd appreciate a reply containing only the number, no unit.

Field Toxic (entry `Cl.Cl.N=C(N)NC(=N)Nc1ccc(CCc2ccc(NC(=N)N=C(N)N)cc2)cc1` ) reads 2

Field Toxic (entry `Cl.Cl.NC1=NC2(CCCCC2)N(c2ccc(CCc3ccc(N4C(N)=NC(N)=NC45CCCCC5)cc3)cc2)C(N)=N1` ) reads 1

Field Toxic (entry `CC1(C)N=C(N)N=C(N)N1c1ccc2c(c1)Cc1cc(N3C(N)=NC(N)=NC3(C)C)ccc1-2.Cl.Cl` ) reads 4

Field Toxic (entry `CC1(C)N=C(N)N=C(N)N1c1cc(Cl)c(N2C(N)=NC(N)=NC2(C)C)c(Cl)c1.Cl.Cl` ) reads 4
